Tested on: SK-BR-3
experimental-protocol: SRB colorimetric assay of cell growth and viability, SK-BR-3
Type: cell-based, human
setup-conditions: 48 hours exposure
Where a SMILES comes first, the peptide text is derived from it. Bridges are numbered along the chain shown (N, C = ends). [ ]: non-standard residue; d: D form. The star is where a group is joined. d(aIle) = CC[C@H](C)[C@@H](N)C(=O)O; d(aThr) = C[C@@H](O)[C@@H](N)C(=O)O; Hexanoyl(5-Me) = CC(C)CCCC(=O)*; Orn = NCCC[C@H](N)C(=O)O; Dhb = C/C=C(\N)C(=O)O
quantity: GI50 (nM)
Numbers only, in nM.

{"compound": "C/C=C1\\NC(=O)[C@H](Cc2ccccc2)NC(=O)[C@@H](C(C)C)NC(=O)[C@@H]([C@@H](C)CC)NC(=O)[C@H](NC(=O)[C@H](NC(=O)[C@H](CCCN)NC(=O)[C@H]2CCCN2C(=O)[C@H](NC(=O)[C@@H](NC(=O)[C@@H](NC(=O)[C@H](NC(=O)CCCCC(C)=O)C(C)C)[C@@H](C)O)C(C)C)C(C)C)[C@@H](C)CC)[C@@H](C)OC(=O)[C@H](C(C)C)NC1=O [Compound 27, [6-OHep^14]-KF]", "assayed-target": "SK-BR-3", "test-value": 3160}
{"compound": "C/C=C1\\NC(=O)[C@H](Cc2ccccc2)NC(=O)[C@@H](C(C)C)NC(=O)[C@@H]([C@@H](C)CC)NC(=O)[C@H](NC(=O)[C@H](NC(=O)[C@H](CCCN)NC(=O)[C@H]2CCCN2C(=O)[C@H](NC(=O)[C@H](C)NC(=O)[C@@H](NC(=O)[C@H](NC(=O)CCCC(C)C)C(C)C)[C@@H](C)O)C(C)C)[C@@H](C)CC)[C@@H](C)OC(=O)[C@H](C(C)C)NC1=O [Compound 44, [Ala^11]-KF] ({Hexanoyl(5-Me)}-[dV]TA[dV][dP][Orn][d(aIle)][d(aThr)][d(aIle)][dV]F[Dhb]V; ester 8-C)", "assayed-target": "SK-BR-3", "test-value": 1190}

Then this compound:
State, for SK-BR-3, measured GI50 of the compound listed here: C/C=C1\NC(=O)[C@H](Cc2ccccc2)NC(=O)[C@@H](C(C)C)NC(=O)[C@@H]([C@@H](C)CC)NC(=O)[C@H](NC(=O)[C@H](NC(=O)[C@H](CCCN)NC(=O)[C@H]2CCCN2C(=O)[C@H](NC(=O)[C@@H](NC(=O)[C@@H](NC(=O)[C@@H](CC2CCCCC2)NC(=O)CCCC(C)C)[C@@H](C)O)C(C)C)C(C)C)[C@@H](C)CC)[C@@H](C)OC(=O)[C@H](C(C)C)NC1=O [Compound 8, [D-Cha^13]-KF] 484

----------
Assign TGI IGROV to each entry below.
Test system: IGROV-1
experimental-protocol: SRB colorimetric assay of cell growth and viability, IGROV-1
Assay type: cell-based, human
setup-conditions: IGROV; 48 hours exposure
Where a SMILES comes first, the peptide text is derived from it. Bridges are numbered along the chain shown (N, C = ends). [ ]: non-standard residue; d: D form. The star is where a group is joined. d(aIle) = CC[C@H](C)[C@@H](N)C(=O)O; d(aThr) = C[C@@H](O)[C@@H](N)C(=O)O; Hexanoyl(5-Me) = CC(C)CCCC(=O)*; Orn = NCCC[C@H](N)C(=O)O; Dhb = C/C=C(\N)C(=O)O
Answers are plain numbers, in Molar.

{"compound": "C/C=C1\\NC(=O)[C@H](Cc2ccccc2)NC(=O)[C@@H](C(C)C)NC(=O)[C@@H]([C@@H](C)CC)NC(=O)[C@H](NC(=O)[C@H](NC(=O)[C@H](CCCN)NC(=O)[C@H]2CCCN2C(=O)[C@H](NC(=O)[C@@H](NC(=O)[C@H](Cc2ccccc2)NC(=O)[C@H](NC(=O)CCCC(C)C)C(C)C)C(C)C)C(C)C)[C@@H](C)CC)[C@@H](C)OC(=O)[C@H](C(C)C)NC1=O [Compound 114, [Phe^12]-KF] ({Hexanoyl(5-Me)}-[dV]FV[dV][dP][Orn][d(aIle)][d(aThr)][d(aIle)][dV]F[Dhb]V; ester 8-C)", "assayed-target": "IGROV-1", "test-value": "3.10E−07"}

Let's switch to this compound now.
State, in one line, measured TGI IGROV of C/C=C1\NC(=O)[C@H](Cc2ccccc2)NC(=O)[C@@H](C(C)C)NC(=O)[C@@H]([C@@H](C)CC)NC(=O)[C@H](NC(=O)[C@H](NC(=O)[C@H](CCCN)NC(=O)[C@H]2CCCN2C(=O)[C@H](NC(=O)[C@@H](NC(=O)[C@H](CCC(=O)O)NC(=O)[C@H](NC(=O)CCCC(C)C)C(C)C)C(C)C)C(C)C)[C@@H](C)CC)[C@@H](C)OC(=O)[C@H](C(C)C)NC1=O [Compound 115, [Glu^12]-KF] ({Hexanoyl(5-Me)}-[dV]EV[dV][dP][Orn][d(aIle)][d(aThr)][d(aIle)][dV]F[Dhb]V; ester 8-C) 3.59E−06

----------
Assign TGI DU-145 to each entry below.
System: DU-145
experimental-protocol: SRB colorimetric assay of cell growth and viability, DU-145
Format: cell-based, human
setup-conditions: 48 hours exposure, SRB
Give bare numbers, in Molar.

Reference set (5 entries):
{"compound": "C/C=C1\\NC(=O)[C@H](Cc2ccccc2)NC(=O)[C@@H](C(C)C)NC(=O)[C@@H]([C@@H](C)CC)NC(=O)[C@H](NC(=O)[C@H](NC(=O)[C@H](CCCN)NC(=O)[C@@H]2CCCN2C(=O)[C@H](NC(=O)[C@@H](NC(=O)[C@@H](NC(=O)[C@H](NC(=O)CC[C@@H](C)CC)C(C)C)[C@@H](C)O)C(C)C)C(C)C)[C@@H](C)CC)[C@@H](C)OC(=O)[C@H](C(C)C)NC1=O [Compound 59, [Pro^9, (4S)-MeHex^14]-KF]", "unit-info": "Molar", "TGI DU-145": "6.76E−06"}
{"compound": "C/C=C1\\NC(=O)[C@H](Cc2ccccc2)NC(=O)[C@@H](C(C)C)NC(=O)[C@@H]([C@@H](C)CC)NC(=O)[C@H](NC(=O)[C@H](NC(=O)[C@H](CCCN)NC(=O)[C@@H]2CC[C@H](c3ccccc3)N2C(=O)[C@H](NC(=O)[C@@H](NC(=O)[C@@H](NC(=O)[C@H](NC(=O)CC[C@@H](C)CC)C(C)C)[C@@H](C)O)C(C)C)C(C)C)[C@@H](C)CC)[C@@H](C)OC(=O)[C@H](C(C)C)NC1=O [Compound 62, [(5R)-Ph-Pro^9, (4S)-MeHex^14]-KF]", "unit-info": "Molar", "TGI DU-145": "6.43E−06"}
{"compound": "C/C=C1\\NC(=O)[C@@H](Cc2ccccc2)NC(=O)[C@H](C(C)C)NC(=O)[C@H]([C@H](C)CC)NC(=O)[C@@H](NC(=O)[C@@H](NC(=O)[C@@H](CCCN)NC(=O)[C@@H]2CCCN2C(=O)[C@@H](NC(=O)[C@H](NC(=O)[C@H](NC(=O)[C@@H](NC(=O)CCCC(C)C)C(C)C)[C@H](C)O)C(C)C)C(C)C)[C@H](C)CC)[C@H](C)OC(=O)[C@@H](C(C)C)NC1=O", "unit-info": "Molar", "TGI DU-145": "6.77E−06"}
{"compound": "C/C=C1\\NC(=O)[C@H](Cc2ccccc2)NC(=O)[C@@H](C(C)C)NC(=O)[C@@H]([C@@H](C)CC)NC(=O)[C@H](NC(=O)[C@H](NC(=O)[C@H](CCCNC(=O)CCCC[C@@H]2SC[C@@H]3NC(=O)N[C@@H]32)NC(=O)[C@H]2CCCN2C(=O)[C@H](NC(=O)[C@@H](NC(=O)[C@@H](NC(=O)[C@H](NC(=O)CCCC(C)C)C(C)C)[C@@H](C)O)C(C)C)C(C)C)[C@@H](C)CC)[C@@H](C)OC(=O)[C@H](C(C)C)NC1=O [Compound 99, [Orn(Biot)^8]-Kahalalide F]", "unit-info": "Molar", "TGI DU-145": "1.57E−06"}
{"compound": "C/C=C1\\NC(=O)[C@H](Cc2ccc([N+](=O)[O-])cc2)NC(=O)[C@@H](C(C)C)NC(=O)[C@@H]([C@@H](C)CC)NC(=O)[C@H](NC(=O)[C@H](NC(=O)[C@H](CCCN)NC(=O)[C@H]2CCCN2C(=O)[C@H](NC(=O)[C@@H](NC(=O)[C@@H](NC(=O)[C@H](NC(=O)CC[C@@H](C)CC)C(C)C)[C@@H](C)O)C(C)C)C(C)C)[C@@H](C)CC)[C@@H](C)OC(=O)[C@H](C(C)C)NC1=O [Compound 73, [Phe(4-NO2)^3, (4S)-MeHex^14]-KF]", "unit-info": "Molar", "TGI DU-145": "6.57E−07"}

Please go through the list and note TGI DU-145 for each compound.
1. C/C=C1\NC(=O)[C@H](Cc2ccc(F)cc2)NC(=O)[C@@H](C(C)C)NC(=O)[C@@H]([C@@H](C)CC)NC(=O)[C@H](NC(=O)[C@H](NC(=O)[C@H](CCCN)NC(=O)[C@H]2CCCN2C(=O)[C@H](NC(=O)[C@@H](NC(=O)[C@@H](NC(=O)[C@H](NC(=O)CC[C@@H](C)CC)C(C)C)[C@@H](C)O)C(C)C)C(C)C)[C@@H](C)CC)[C@@H](C)OC(=O)[C@H](C(C)C)NC1=O [Compound 74, [Phe(4-F)^3, (4S)-MeHex^14]-KF]
2. C/C=C1\NC(=O)[C@H](Cc2ccccc2)NC(=O)[C@@H](C(C)C)NC(=O)[C@@H]([C@@H](C)CC)NC(=O)[C@H](NC(=O)[C@H](NC(=O)[C@H](CCCN)NC(=O)[C@H]2CCCCN2C(=O)[C@H](NC(=O)[C@@H](NC(=O)[C@@H](NC(=O)[C@H](NC(=O)CC[C@@H](C)CC)C(C)C)[C@@H](C)O)C(C)C)C(C)C)[C@@H](C)CC)[C@@H](C)OC(=O)[C@H](C(C)C)NC1=O [Compound 60, [D-Pip^9, (4S)-MeHex^14]-KF]
3. C/C=C1\NC(=O)[C@H](Cc2ccccc2)NC(=O)[C@@H](C(C)C)NC(=O)[C@@H]([C@@H](C)CC)NC(=O)[C@H](NC(=O)[C@H](NC(=O)[C@H](CCCNC(=O)C(F)(F)F)NC(=O)[C@H]2CCCN2C(=O)[C@H](NC(=O)[C@@H](NC(=O)[C@@H](NC(=O)[C@H](NC(=O)CC[C@@H](C)CC)C(C)C)[C@@H](C)OC(=O)C(F)(F)F)C(C)C)C(C)C)[C@@H](C)CC)[C@@H](C)OC(=O)[C@H](C(C)C)NC1=O
4. C/C=C1\NC(=O)[C@H](Cc2ccc(Cl)c(Cl)c2)NC(=O)[C@@H](C(C)C)NC(=O)[C@@H]([C@@H](C)CC)NC(=O)[C@H](NC(=O)[C@H](NC(=O)[C@H](CCCN)NC(=O)[C@H]2CCCN2C(=O)[C@H](NC(=O)[C@@H](NC(=O)[C@@H](NC(=O)[C@H](NC(=O)CC[C@@H](C)CC)C(C)C)[C@@H](C)O)C(C)C)C(C)C)[C@@H](C)CC)[C@@H](C)OC(=O)[C@H](C(C)C)NC1=O [Compound 70, [Phe(3,4-Cl2)^3, (4S)-MeHex^14]-KF]

1.61E−06
3.17E−06
1.73E−06
2.57E−07
